# maps each entry to its aptazyme ON/OFF ratio
B1: Pistol ribozyme (parent)
chain: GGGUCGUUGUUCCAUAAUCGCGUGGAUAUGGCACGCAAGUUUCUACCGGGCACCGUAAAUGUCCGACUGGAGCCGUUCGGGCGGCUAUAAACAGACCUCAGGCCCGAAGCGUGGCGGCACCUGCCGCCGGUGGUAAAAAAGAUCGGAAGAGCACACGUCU

# Variants of: B1
# protocol details: aptazyme ON/OFF ratio, guanine; higher = stronger switching; co-transcriptional cleavage with and without guanine
I only need the number, thanks.

Would you please look over these solved cases?
changes: U7C G9C U10C C12U C13U
aptazyme ON/OFF ratio: 1.07
--
changes: U7A U8G U10G U11G C12G C13G
aptazyme ON/OFF ratio: 1.03
--
changes: U7G U8G U10C C12A C13A
aptazyme ON/OFF ratio: 1.45

Request: Please report the recorded aptazyme ON/OFF ratio for U7C U8G G9C U10G C12A C13G .
Response: 1.09

Request: Please report the recorded aptazyme ON/OFF ratio for U7G U10C U11G C13G .
Response: 1.09

Request: Please report the recorded aptazyme ON/OFF ratio for U7A U8G G9A U10G U11A C12G C13U .
Response: 1.22
